src = patent US9510593B2

Tested on: rice
experimentalDetails: Rice pouch assay: growth of primary root and shoot
Format: in vivo
assayContext: 10 ppm (10 mg/L); linkage changes; vs control
valueKind: Percent Change in Primary Root Length of Rice (%)
Numbers only, in %.

| compound | unitsOfMeasure | measured |
| --- | --- | --- |
| Oc1ccnc(OCc2cccc(F)c2)n1 [Compound 21, 2-O-(3-fluorobenzyl)uracil] | % | 6.0 |
| Oc1ccnc(SCCc2ccccc2)n1 [Compound 22] | % | 5.3 |

For each of the compounds below, state Percent Change in Primary Root Length of Rice.
1. Oc1ccnc(OCc2ccccc2)n1 [Compound 24, 2-O-Benzyluracil]
2. Oc1ccnc(SC/C=C/c2ccccc2)n1 [Compound 23]

[2.2, 2.3]
